Values were extracted from ChEMBL document CHEMBL1649134.

System: Klebsiella aerogenes
Assay summary: Antimicrobial activity against multidrug resistant Enterobacter aerogenes isolate 13 by broth dilution method
Format: functional
Quick list: MIC per entry.
All answers are understood in µg/mL, so give the number only.

molecule=C[C@@H]1CN(c2c(F)c(N)c3c(=O)c(C(=O)O)cn(C4CC4)c3c2F)C[C@H](C)N1 endpoint_result=256
molecule=O=C(N[C@H](CO)[C@H](O)c1ccc([N+](=O)[O-])cc1)C(Cl)Cl endpoint_result=1020
molecule="C[C@@H](O)[C@H]1C(=O)N2C(C(=O)O)=C(SCCNC=N)C[C@H]12 [IMIPENEM ANHYDROUS]" endpoint_result=2

// next entry
Query: Consider the molecule "CN(C)[C@@H]1C(O)=C(C(N)=O)C(=O)[C@@]2(O)C(O)=C3C(=O)c4c(O)cccc4[C@@](C)(O)[C@H]3C[C@@H]12" and give its measured MIC.
Response: 64

====

Test system: Klebsiella aerogenes
Assay summary: Antimicrobial activity against multidrug resistant Enterobacter aerogenes isolate 5 by broth dilution method
Format: functional
Measured metric: MIC

Consider the following illustrative entries.
compound_string=O=C(N[C@H](CO)[C@H](O)c1ccc([N+](=O)[O-])cc1)C(Cl)Cl measured_metric=MIC endpoint_result="> 1020 µg/mL"
compound_string=CO[C@@]1(NC(=O)Cc2cccs2)C(=O)N2C(C(=O)O)=C(COC(N)=O)CS[C@@H]21 measured_metric=MIC endpoint_result="> 1020 µg/mL"

Query: Name the recorded MIC for "CC(C)(O/N=C(\C(=O)N[C@@H]1C(=O)N2C(C(=O)[O-])=C(C[n+]3ccccc3)CS[C@H]12)c1csc(N)n1)C(=O)O" .
Response: > 2050 µg/mL
